Experiment: yeast display, Sf9 membrane polyspecificity reagent, FACS + sequencing; frameworks hold sequencing errors
Measure name: polyreactivity (PSR sort gate)

Ordered residues	Measure name	Measured value
QVQLVESGGCLVQAGGSLRLSCAASGSIFLTYAMGWYIQAPGKERELVASSTGGGSTNYADSVKGRFTSSRDNAKNTVYLQRNSLKPEDTAVYYCAKKAIVSDQWDKYDYWGQGTQVTVSS	polyreactivity (PSR sort gate)	low polyreactivity
QGQLGESGGGLVQAGGSLRLSCAASGSIFPEYDMGWYRQAPGNERELDAAISWSGGSTYYADSVKGRFTISRANAKNTVSLQRNSLKPVDTAVYYCNRVPSWRIDYDYWGQGTQVSVSS	polyreactivity (PSR sort gate)	low polyreactivity
QVQLVESGGGLVQAGGSLRLSCAASGRTFFPNAMGWSRQAPGKERELVASITSRGGGTYYADSVKGRFTISRDNAKKTVYLQMNSLKPEDTAVYYCAADRYYFSPGYNWWSEGYDYWGQGTQVTVSS	polyreactivity (PSR sort gate)	low polyreactivity
QVQLVESGGGLVQAGGSLRLSCAASGFTFSKYAMGWYRQAPGKERELVAAITRRGSSTYYADSVKGRFTISRDNAKNTVYLQMNSLKPEDTAVYYCNAPRPNGYLGEDNYWGQGTQVTVSS	polyreactivity (PSR sort gate)	high polyreactivity
QVQLVESGVGLVQAGGSLRLSCAASGVTFYQYAMGWYRQAPGKERELVAAITRRGGSTSYADSVKGRFTISRDNAKNHVFLKMTRLIPEDTSVYYCNALYGSAFATQVESDYWGQGTQVNVSS	polyreactivity (PSR sort gate)	high polyreactivity
QVQLVESGGGLVQAGGSLRLSCAASGFTFSAYAMGWYRQAPGKERELVAAITLRGGSTYYADSVKGRFTISRDNAKNTVYLQMNSLKPEDTAVYYCNADRWTRTEEEVDYWGQGTQVTVSS	polyreactivity (PSR sort gate)	low polyreactivity
QVQLVESGGGLVQAGGSLRLSCAASGSILRSNAMGWYRQAPGKERELVAAITFNGGSTYADSVKGRFTISRDNAKNTVYLQMNSLIPEDTAVYYCATGDGPSLFDYWGQGTQVTVSS	polyreactivity (PSR sort gate)	low polyreactivity
QVQLVESGGGLVQAGGSLRLSCAASGRILHHYAMGWYIQAHGKERELVAAIRWGGGSTYYADSVKGRFTISRDNAKNTVYLQMNSLKPEDTAVYYCAAEVVAGYDYSQYYYWGQCTQVTVSS	polyreactivity (PSR sort gate)	low polyreactivity
QVQLVESRGGLVQAGGSLRLSCAASGFIFWYYAMGWYRQAPGKERALVAAINWSGTSTNYADSVKGRFTISRDNAKNTVYLQMNSLIPEDTAVYYCNTRIWSSSYDVTYDYWGQGTQVTVSS	polyreactivity (PSR sort gate)	low polyreactivity
QVQLVESGGGLVQAGGILRLSCAASARIFTYKAMGWYRQAPGKERELVAAITNGGSTYYADSVKGRFTISRDNAKNTVYLQMNSMKPEDTAVYYCNRVVYRPRYRYGYWGQGTQVTVSS	polyreactivity (PSR sort gate)	high polyreactivity
QVQLVESGGGLVQAGGSLRLSCAASGSIFINYVMGWYRQAPGKERELVAAISSIGDSTYYADSVKGRFTISRDNAKNTVYLQMNSLKPEDTAVYYCNAEIPSLKASPLYRYDYWGQGTKVTVSS	polyreactivity (PSR sort gate)	high polyreactivity

====

Experiment: yeast display, Sf9 membrane polyspecificity reagent, FACS + sequencing; frameworks hold sequencing errors
Measure name: polyreactivity (PSR sort gate)

Ordered residues	Measured value
QVQLVESGGGLVQAGGSLRLTCAASGRTYFYNAMGWYIKAPGKERELVAAISTNGGSTYYADSVNGRFTISRDNAKNTVYLQMNSLKPEDTAVYYCNTYAKPHRSGGGLGGHYYWGQGTQVTVSS	low polyreactivity
QVQLVDSGGGLVQAGGSLRLICAASGSTLGQYAMGWYRQAPGKERELVAAITARTGRTYYADSVKGRFTISRDNAKNTVYLQMNSMKPEDTAVYYCASVTFSYQDYYWGQGTQVTVSS	high polyreactivity
QVQLVESGGGLVQAGGSLRLSCAASGFTFAFYAMGWYRQAPGKERELVAAITGSGGSTYYADSVKGRFTISRDNAKNTVYLQMNSLKPEDTAVYYCAADLVVDYEWYDYWGQGTQVTVSS	high polyreactivity
QVQLVESGGGLVQAGGSLRLSCAASGSILSYYTMGWYRQAPGKERELVAAISAGGGSTYYADSVKGRFTISRDNAKNTVYLQMNSLKPEDTAVYYCASGFSRRWQYNYWGQGTQVTVSS	high polyreactivity
QVQLVESGGGLVQAGGSLRLSCAASGRTFGYNVMGWYTQAPGKERELVAGISESGGRTYYADSVKGRVTISRDNAKNTVYLQMNSLKPEDTAVYYCAKRYQRASYDYWGQGTQVTVSS	high polyreactivity
QVQLVASGGGLVQAGGSLRLSCAASGSISFYNAMGWYRQAPGKERELVAAINRSGGSTNYADSVKGLFTISRDNGKNTVYLQMNSLKPEDTAVYYCAAVSSKGNRHVYDYWGQGTQVTGSS	low polyreactivity
KVQLVESGGGLVQAGGSLRLSCAASGSIFPSYVMGWYRQAPGKERELVAAITKSTGTTYYADSVKGRFTISRDNAKNTVYLQMNSLKPEDTAVYYCNAPYWFSPGYGGFEFGYDYWGQGTQVTVSS	low polyreactivity
QVQLVESGGGLVQAGGSLRLSCAASGIIFRWYTMGWFRQAPGKERELVAAITGRGGSTYYADSVKGRFTISRDNAKNTFYLQMNSLIPEDTAVYYCAAEGVRIGTRYDYWGQGTLVTVSS	high polyreactivity
QVQLVESGGGLVQAGGSLRLSCAASGFIFGKNALGWYRQAPGKERELVAVISWRGSSTYYADSVKGRFTISRDNAKNTVYLQMNSLKPEDTAVYYCAARYPARGTLYYWGQGTQVTVSS	low polyreactivity
QVQLVESGGGLVQAGGSLRLSCAASGRTFKFNAMGWYRQAPGKERELVAGITWTGSTTSYADSVKGRFTISRDNAKNTVYLQMNSLKPEDTAVYYCDADKIRFWYHGFYYRGQGTQVTVSS	low polyreactivity
QVQLVESGGGLVQAGGSLRLSCAASGITLSVYAMGWYRQAPRKERELVASISSGGTSTYYADSVKGRFTISRDNAKNTVYLLMISLKPEDTAVYYCAAYSYYTGDQYSYDYWGQGTQVTVSS	low polyreactivity
